system: RPMI-8226; assay: NCI tumour cell line growth inhibition, 48 h
The source made the active and inactive calls. Rule as the data show it: active = GI50 up to about 1.1 µM and inactive = higher.

[
  {
    "COMPOUND": "COc1cccc2c1OC1(C=C2)Oc2ccccc2C(=O)N1C (stereo unspecified)",
    "TEST_SYSTEM": "RPMI-8226",
    "GI50": "27.9 µM (inactive)"
  },
  {
    "COMPOUND": "COCn1cnc2c(=O)nc(SC)n(-c3ccccc3)c21",
    "TEST_SYSTEM": "RPMI-8226",
    "GI50": "> 100 µM (inactive)"
  },
  {
    "COMPOUND": "COc1ccc(C2c3cc4c(cc3OC(NNC(N)=O)C2C)OCO4)cc1 (stereo unspecified)",
    "TEST_SYSTEM": "RPMI-8226",
    "GI50": "3.3 µM (inactive)"
  },
  {
    "COMPOUND": "COc1cccc(N2C(=O)C3c4[nH]c5ccccc5c4C4c5ccccc5CCC4C3C2=O)c1 (stereo unspecified)",
    "TEST_SYSTEM": "RPMI-8226",
    "GI50": "> 10 µM (inactive)"
  },
  {
    "COMPOUND": "Cc1cn(C2CCC(CO)(CF)O2)c(=O)[nH]c1=O (stereo unspecified)",
    "TEST_SYSTEM": "RPMI-8226",
    "GI50": "> 100 µM (inactive)"
  },
  {
    "COMPOUND": "COC(=O)c1cc(O)ccc1O [METHYL 2,5-DIHYDROXYBENZOATE]",
    "TEST_SYSTEM": "RPMI-8226",
    "GI50": "> 100 µM (inactive)"
  }
]

====

tested on: NCI/ADR-RES; assay: NCI tumour cell line growth inhibition, 48 h
Calls of active or inactive are those of the source. Rule as the data show it: active = GI50 up to about 1.1 µM and inactive = higher. Where a SMILES comes first, the peptide text is derived from it. The star is where a group is joined. Boc = CC(C)(C)OC(=O)*; Bn = c1ccc(C*)cc1
Labels: active, inactive

[
  {
    "MOLECULE": "CNc1cccc2c1C(C)C[C@]1(C)C(=O)Nc3ccccc3[C@H]21 (some centres not stated)",
    "CLASS_ASSIGNMENT": "inactive"
  },
  {
    "MOLECULE": "CCN(CC)CCCOC(=O)/C=C/c1c(C)[nH]c(=O)[nH]c1=O",
    "CLASS_ASSIGNMENT": "inactive"
  },
  {
    "MOLECULE": "Cc1nn(-c2ccccc2)c2c1CC(=O)Nc1ccccc1-2",
    "CLASS_ASSIGNMENT": "active"
  },
  {
    "MOLECULE": "O=C(Cn1ccc(=O)[nH]c1=O)Nc1ccc(C(=O)O)c(O)c1",
    "CLASS_ASSIGNMENT": "inactive"
  },
  {
    "MOLECULE": "CC1CN(CCO)CC(C)O1 (configuration not stated)",
    "CLASS_ASSIGNMENT": "inactive"
  },
  {
    "MOLECULE": "NC1(P(=O)(O)O)CCCCC1",
    "CLASS_ASSIGNMENT": "inactive"
  },
  {
    "MOLECULE": "O=c1[nH]c(=O)n(C2CC(O)C(CO)O2)c2nc3ccc4ccccc4c3nc12 (configuration not stated)",
    "CLASS_ASSIGNMENT": "inactive"
  },
  {
    "MOLECULE": "NC(=O)c1ncn(C2CCC(CP(=O)(O)O)C2)c1N (configuration not stated)",
    "CLASS_ASSIGNMENT": "inactive"
  },
  {
    "MOLECULE": "C=CC(=O)N1C/C(=C\\c2ccc(Cl)cc2)C(=O)/C(=C/c2ccc(Cl)cc2)C1",
    "CLASS_ASSIGNMENT": "active"
  },
  {
    "MOLECULE": "Cc1cn(C2CC(O)C(COC(N)=O)O2)c(=O)[nH]c1=O (configuration not stated)",
    "CLASS_ASSIGNMENT": "inactive"
  },
  {
    "MOLECULE": "COC(=O)C(CC(C)C)NC(=O)CNC(=O)C(Cc1ccc(OCc2ccccc2)cc1)NC(=O)C(COCc1ccccc1)NC(=O)OC(C)(C)C (configuration not stated) (Boc-S(Bn)Y(Bn)GL-OMe; configuration not given here)",
    "CLASS_ASSIGNMENT": "inactive"
  },
  {
    "MOLECULE": "COc1cc(C2c3cc4c(cc3OC(N3CCOCC3)C2C)OCO4)ccc1O (configuration not stated)",
    "CLASS_ASSIGNMENT": "inactive"
  },
  {
    "MOLECULE": "CC(C)(C)OC(=O)N(CCNS(=O)(=O)c1cccc2cnccc12)CCC(=O)ON1C(=O)CCC1=O",
    "CLASS_ASSIGNMENT": "inactive"
  },
  {
    "MOLECULE": "O=C1CSC(/C=C/c2ccccc2)N1c1ccc(-c2ccc(-n3c(-c4ccccc4)nc4ccccc4c3=O)cc2)cc1 (configuration not stated)",
    "CLASS_ASSIGNMENT": "inactive"
  },
  {
    "MOLECULE": "Cc1ccc2cccc(OC(=O)c3cc4c(cc3Cl)Sc3nccn3S4(=O)=O)c2n1",
    "CLASS_ASSIGNMENT": "inactive"
  },
  {
    "MOLECULE": "COC(=O)C(=O)C(C(=O)OC)C(=O)C(=O)Nc1c(Cl)cc([N+](=O)[O-])cc1Cl (configuration not stated)",
    "CLASS_ASSIGNMENT": "inactive"
  },
  {
    "MOLECULE": "COc1ccccc1N(CN1C(=O)CCC1C(=O)O)C(C)=O (configuration not stated)",
    "CLASS_ASSIGNMENT": "inactive"
  },
  {
    "MOLECULE": "Cc1cc(C)c2c(c1)CC1(Cc3c(C)ccc(C)c3C1=O)C2=O (configuration not stated)",
    "CLASS_ASSIGNMENT": "inactive"
  },
  {
    "MOLECULE": "Cc1cc(/N=N/c2c(O)ccc3ccccc23)ccc1/N=N/c1cccc([N+](C)(C)C)c1",
    "CLASS_ASSIGNMENT": "inactive"
  },
  {
    "MOLECULE": "CN(C)CCCNC(=O)c1c(-c2cccnc2)cnc2ccccc12",
    "CLASS_ASSIGNMENT": "inactive"
  },
  {
    "MOLECULE": "CC(=O)N(CN1C(=O)CCC1C(=O)O)c1ccc(C)cc1 (configuration not stated)",
    "CLASS_ASSIGNMENT": "inactive"
  },
  {
    "MOLECULE": "O=C(Nc1nc(C23CC4CC(CC(C4)C2)C3)cs1)c1cc2c(ccc3ccccc32)oc1=O",
    "CLASS_ASSIGNMENT": "inactive"
  },
  {
    "MOLECULE": "CN1C2=C(CC3=C1CC(C)(C)CC3=O)C(=O)CC(C)(C)C2",
    "CLASS_ASSIGNMENT": "inactive"
  },
  {
    "MOLECULE": "Cc1nc2[nH]ccn2c(=O)c1CCO",
    "CLASS_ASSIGNMENT": "inactive"
  },
  {
    "MOLECULE": "COc1c(C(C)(C)C)cc(CC2C(=O)C=CC2=O)cc1C(C)(C)C",
    "CLASS_ASSIGNMENT": "inactive"
  },
  {
    "MOLECULE": "CCOC(=O)C(C#N)C1=CC(=O)C(=O)c2ccc(OC)cc21 (configuration not stated)",
    "CLASS_ASSIGNMENT": "inactive"
  },
  {
    "MOLECULE": "CC(C)(CO)NC(=O)c1cccc(C(=O)NC(C)(C)CO)c1Br",
    "CLASS_ASSIGNMENT": "inactive"
  },
  {
    "MOLECULE": "N=c1oc2ccc([N+](=O)[O-])cc2cc1C(=O)Nc1ccccn1",
    "CLASS_ASSIGNMENT": "inactive"
  },
  {
    "MOLECULE": "CC1(C)O[C@H]2OC(CO)C(OS(C)(=O)=O)[C@H]2O1 (some centres not stated)",
    "CLASS_ASSIGNMENT": "inactive"
  },
  {
    "MOLECULE": "N#Cc1c(N)nc(-c2ccc(Cl)cc2)c2c1-c1ccccc1S(=O)(=O)CC2",
    "CLASS_ASSIGNMENT": "inactive"
  },
  {
    "MOLECULE": "CC(=O)OC1=NN=C2COC(c3ccccc3OC(C)=O)=NN2C1",
    "CLASS_ASSIGNMENT": "inactive"
  },
  {
    "MOLECULE": "O=C(N/N=C\\c1c(O)ccc2ccccc12)c1ccncc1",
    "CLASS_ASSIGNMENT": "active"
  },
  {
    "MOLECULE": "OC1(c2ccccc2)CC2CCC(C1)N2CCCC(O)(c1ccccc1)c1ccccc1 (configuration not stated)",
    "CLASS_ASSIGNMENT": "inactive"
  },
  {
    "MOLECULE": "C(/c1ccco1)=c1/nc(-c2ccccc2)n2c1nc1ccccc12",
    "CLASS_ASSIGNMENT": "inactive"
  },
  {
    "MOLECULE": "CC[C@@]1(O)C(=O)OCc2c1cc1n(c2=O)Cc2c-1nc1ccccc1c2/C=N\\NC(=O)C(N)Cc1c[nH]cn1 (some centres not stated)",
    "CLASS_ASSIGNMENT": "active"
  },
  {
    "MOLECULE": "CCOC(=O)CCCn1cc(C(=O)OC)nn1",
    "CLASS_ASSIGNMENT": "inactive"
  },
  {
    "MOLECULE": "COc1cc2cc(C(=O)N3CC(COS(C)(=O)=O)c4ccc(O)cc43)[nH]c2c(OC)c1OC (configuration not stated)",
    "CLASS_ASSIGNMENT": "active"
  },
  {
    "MOLECULE": "CNC(=S)N/N=C(/C)CCC/C(C)=N/NC(=S)NC",
    "CLASS_ASSIGNMENT": "inactive"
  },
  {
    "MOLECULE": "CN(C)/C=N\\c1cccc2c1NSN2",
    "CLASS_ASSIGNMENT": "inactive"
  },
  {
    "MOLECULE": "O=C(O)C(SC1=NC(=O)C2(NN1)c1ccccc1-c1ccccc12)SC1=NC(=O)C2(NN1)c1ccccc1-c1ccccc12",
    "CLASS_ASSIGNMENT": "inactive"
  },
  {
    "MOLECULE": "CCOC(=O)C1(Cc2ccccc2)C=CN(C(=O)c2ccccc2)C=C1",
    "CLASS_ASSIGNMENT": "inactive"
  },
  {
    "MOLECULE": "CC(=O)N1C(=O)/C(=C\\C(=O)c2ccc(Cl)cc2)c2ccccc21",
    "CLASS_ASSIGNMENT": "inactive"
  }
]
